Listed here: items and their measured pIC50.
# system_tested: Serine/threonine-protein kinase B-raf (Homo sapiens, UniProt P15056, V600E)
# Sequence (P15056 2-766 V600E limits assumed): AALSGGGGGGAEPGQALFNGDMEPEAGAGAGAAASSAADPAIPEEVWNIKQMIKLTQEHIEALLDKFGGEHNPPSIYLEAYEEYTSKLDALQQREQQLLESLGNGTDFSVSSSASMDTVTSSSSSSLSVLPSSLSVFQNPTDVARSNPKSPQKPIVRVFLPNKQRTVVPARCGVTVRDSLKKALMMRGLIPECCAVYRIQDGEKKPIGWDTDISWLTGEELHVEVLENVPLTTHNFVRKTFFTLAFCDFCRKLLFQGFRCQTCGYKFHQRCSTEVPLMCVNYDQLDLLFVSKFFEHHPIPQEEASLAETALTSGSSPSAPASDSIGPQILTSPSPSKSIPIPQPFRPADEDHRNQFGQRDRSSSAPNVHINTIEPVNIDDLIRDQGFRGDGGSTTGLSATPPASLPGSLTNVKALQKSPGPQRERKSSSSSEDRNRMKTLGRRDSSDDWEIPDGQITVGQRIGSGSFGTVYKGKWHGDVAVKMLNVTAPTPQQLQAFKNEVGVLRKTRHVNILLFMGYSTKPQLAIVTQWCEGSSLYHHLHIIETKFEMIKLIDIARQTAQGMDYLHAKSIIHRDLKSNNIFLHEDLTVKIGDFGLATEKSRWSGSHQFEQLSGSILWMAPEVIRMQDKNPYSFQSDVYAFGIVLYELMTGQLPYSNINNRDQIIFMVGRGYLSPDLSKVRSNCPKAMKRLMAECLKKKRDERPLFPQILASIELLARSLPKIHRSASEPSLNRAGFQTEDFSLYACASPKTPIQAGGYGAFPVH
# assay_info: Inhibition of B-Raf V600E mutant
The meaning of pIC50 here: minus log10 of the concentration in molar units.

input_smiles	pIC50
O=C(Nc1ccc(Oc2ccnc3[nH]c(=O)c(=O)[nH]c23)cc1)Nc1ccc(Cl)c(C(F)(F)F)c1	7.68
O=C(Nc1ccc(Cl)c(C(F)(F)F)c1)Nc1ccc(Oc2ccnc3ncc(=O)[nH]c23)cc1F	7.23
CSc1cc(Oc2ccnc3ncc(=O)[nH]c23)ccc1NC(=O)Nc1cc(C(F)(F)F)ccc1F	6.61

The record that follows has no pIC50 shown yet.
Input: Item CN(C)c1nc2c(Oc3ccc(NC(=O)Nc4cc(C(F)(F)F)ccc4F)c(F)c3)ccnc2[nH]1 has what recorded pIC50?
Output: 7.60

---

# system_tested: Serine/threonine-protein kinase B-raf (Homo sapiens, UniProt P15056, V600E)
# assay_info: Inhibition of BRAF V600E mutant-mediated ERK phosphorylation in human WM266.4 cells
# Assay type: cell-based
Rule for this label: criterion met means IC50 is less than 0.4 µM; criterion not met means IC50 is at least 0.4 µM.

Reference set (6 entries):
input_smiles	class_name
O=C1CNc2nccc(Oc3ccc(NC(=O)Nc4cc(C(F)(F)F)ccc4F)cc3)c2N1	criterion not met
O=C(Nc1ccc(Cl)c(C(F)(F)F)c1)Nc1ccc(Oc2ccnc3[nH]c(=O)cnc23)cc1F	criterion not met
Cc1ccc(-n2nc(C(C)(C)C)cc2NC(=O)Nc2ccc(Oc3ccnc4[nH]c(=O)c(C)nc34)c3ccccc23)cc1	criterion met
CSc1cc(Oc2ccnc3[nH]c(=O)c(=O)[nH]c23)ccc1NC(=O)Nc1ccc(Cl)c(C(F)(F)F)c1	criterion not met
O=C(Nc1ccc(Oc2ccnc3ncc(=O)[nH]c23)cc1)Nc1cc(C(F)(F)F)ccc1F	criterion not met
O=C(Nc1cccc(Oc2ccnc3[nH]c(=O)cnc23)c1)Nc1cc(C(F)(F)F)ccc1F	criterion not met

Input: Dear reviewer, please state whether O=C(Nc1ccc(Oc2ccnc3[nH]c(=O)cnc23)cc1)Nc1ccc(Cl)c(C(F)(F)F)c1 has IC50 strictly beneath 0.4 µM.
Output: criterion not met

Input: Next record, please: CC(C)(C)c1cc(NC(=O)Nc2ccc(Oc3ccnc4[nH]c(=O)cnc34)c3ccccc23)n(-c2ccccc2)n1
Output: criterion met

---

# system_tested: Serine/threonine-protein kinase B-raf (Homo sapiens, UniProt P15056, V600E)
# assay_info: Inhibition of B-Raf V600E mutant
metric_name: log10 IC50 (log10 of the value in nM)
Plainly stated, the numbers are log10 of IC50 given in nM.

Answered cases to consult:
input_smiles	system_tested	log10 IC50
O=C(Nc1ccc(Cl)c(C(F)(F)F)c1)Nc1ccc(Oc2ccnc3[nH]c(=O)cnc23)cc1F	Serine/threonine-protein kinase B-raf (Homo sapiens, UniProt P15056, V600E)	0.78
O=C(Nc1ccc(Oc2ccnc3[nH]c(S)nc23)cc1F)Nc1cc(C(F)(F)F)ccc1F	Serine/threonine-protein kinase B-raf (Homo sapiens, UniProt P15056, V600E)	1.23
O=C1CNc2nccc(Oc3ccc(NC(=O)Nc4cc(C(F)(F)F)ccc4F)cc3)c2N1	Serine/threonine-protein kinase B-raf (Homo sapiens, UniProt P15056, V600E)	1.73
O=C(Nc1cc(C(F)(F)F)ccc1F)Nc1ccc(Oc2ccnc3ncc(=O)[nH]c23)c2ccccc12	Serine/threonine-protein kinase B-raf (Homo sapiens, UniProt P15056, V600E)	1.92
CC(C)(C)c1cc(NC(=O)Nc2ccc(Oc3ccnc4[nH]c(=O)c(=O)[nH]c34)cc2F)n(-c2ccccc2)n1	Serine/threonine-protein kinase B-raf (Homo sapiens, UniProt P15056, V600E)	2.28
Cc1ccc(-n2nc(C(C)(C)C)cc2NC(=O)Nc2ccc(Oc3ccnc4[nH]c(=O)c(=O)[nH]c34)cc2F)cc1	Serine/threonine-protein kinase B-raf (Homo sapiens, UniProt P15056, V600E)	1.95
O=C(Nc1ccc(Oc2ccnc3[nH]cnc23)cc1F)Nc1cc(C(F)(F)F)ccc1F	Serine/threonine-protein kinase B-raf (Homo sapiens, UniProt P15056, V600E)	1.62

The record that follows has no log10 IC50 shown yet.
Input: Item CSc1cc(Oc2ccnc3[nH]c(=O)c(=O)[nH]c23)ccc1NC(=O)Nc1ccc(Cl)c(C(F)(F)F)c1 has what recorded log10 IC50?
Output: 0.48

---

# system_tested: Serine/threonine-protein kinase B-raf (Homo sapiens, UniProt P15056, V600E)
# assay_info: Inhibition of B-Raf V600E mutant
Listed here: items and their measured pIC50.
The meaning of pIC50 here: minus log10 of the concentration in molar units.

input_smiles	pIC50
O=C(Nc1cccc(Oc2ccnc3[nH]c(=O)cnc23)c1)Nc1cc(C(F)(F)F)ccc1F	7.40

Input: Item CC(C)(C)c1cc(NC(=O)c2cccc(Oc3ccnc4[nH]c(=O)cnc34)c2)n(-c2ccccc2)n1 has what recorded pIC50?
Output: 6.06

Input: Next record, please: Cc1ccc(-n2nc(C(C)(C)C)cc2NC(=O)Nc2ccc(Oc3ccnc4[nH]c(=O)c(N)nc34)cc2F)cc1
Output: 6.49

Input: Next record, please: Cc1ccc(-n2nc(C(C)(C)C)cc2NC(=O)Nc2ccc(Oc3ccnc4c3NCC(=O)N4)cc2F)cc1
Output: 7.29

Input: Next record, please: O=C(Nc1ccc(Oc2ccnc3[nH]c(=O)c(=O)[nH]c23)cc1F)Nc1cc(C(F)(F)F)ccc1F
Output: 8.30

Input: Next record, please: O=C(Nc1ccc(Oc2ccnc3ncc(=O)[nH]c23)cc1F)Nc1cc(C(F)(F)F)ccc1F
Output: 7.12

Input: Next record, please: Nc1nc2c(Oc3ccc(NC(=O)Nc4cc(C(F)(F)F)ccc4F)c(F)c3)ccnc2[nH]c1=O
Output: 7.52

Input: Next record, please: CSc1cc(Oc2ccnc3[nH]c(=O)cnc23)ccc1NC(=O)Nc1cc(C(F)(F)F)ccc1F
Output: 8.40

---

Listed here: items and their measured half-life.
# assay_info: Half life in BALB/cAnNCrl mouse at 10 mg/kg, po
# experimental_context: in vivo
Answer in h, number only, no unit symbol.

Answered cases to consult:
input_smiles	reported_measurement
CC(C)(C)c1cc(NC(=O)Nc2ccc(Oc3ccnc4[nH]c(=O)cnc34)c3ccccc23)n(-c2ccccc2)n1	1.7
Cc1ccc(-n2nc(C(C)(C)C)cc2NC(=O)Nc2ccc(Oc3ccnc4[nH]c(=O)cnc34)cc2)cc1	6.3
Cc1ccc(-n2nc(C(C)(C)C)cc2NC(=O)Nc2ccc(Oc3ccnc4[nH]c(S)nc34)cc2F)cc1	3.3

The record that follows has no half-life shown yet.
Input: Item Cc1ccc(-n2nc(C(C)(C)C)cc2NC(=O)Nc2ccc(Oc3ccnc4[nH]c(=O)cnc34)cc2F)cc1 has what recorded half-life?
Output: 5.9

---

# system_tested: Serine/threonine-protein kinase B-raf (Homo sapiens, UniProt P15056, V600E)
# assay_info: Inhibition of B-Raf V600E mutant
metric_name: log10 IC50 (log10 of the value in nM)
Plainly stated, the numbers are log10 of IC50 given in nM.

input_smiles	reported_measurement
O=C(Nc1cc(C(F)(F)F)ccc1F)Nc1ccc(Oc2ccnc3[nH]c(=O)c(C(F)(F)F)nc23)c2ccccc12	2.13
CC(C)(C)c1cc(NC(=O)Nc2ccc(Oc3ccnc4[nH]c(=O)cnc34)c3ccccc23)n(-c2ccccc2)n1	1.89
Cc1nc2c(Oc3ccc(NC(=O)Nc4cc(C(F)(F)F)ccc4F)c4ccccc34)ccnc2[nH]c1=O	0.60
Cc1nc2c(Oc3ccc(NC(=O)Nc4cc(C(C)(C)C)nn4-c4ccccc4)c4ccccc34)ccnc2[nH]c1=O	1.83
O=C(Nc1cccc(Oc2ccnc3ncc(=O)[nH]c23)c1)Nc1cc(C(F)(F)F)ccc1F	2.02

Input: Item Cc1nc2c(Oc3cccc(NC(=O)c4cccc(C(C)(C)C)c4)c3)ccnc2[nH]c1=O has what recorded log10 IC50?
Output: 1.00

Input: Next record, please: CSc1cc(Oc2ccnc3[nH]c(=O)c(C)nc23)ccc1NC(=O)Nc1cc(C(C)(C)C)nn1-c1ccc(C)cc1
Output: 1.38

Input: Next record, please: Cc1ccc(-n2nc(C(C)(C)C)cc2NC(=O)Nc2cccc(Oc3ccnc4ncc(=O)[nH]c34)c2)cc1
Output: 2.76

---

# system_tested: Serine/threonine-protein kinase B-raf (Homo sapiens, UniProt P15056, V600E)
# assay_info: Inhibition of BRAF V600E mutant-mediated ERK phosphorylation in human WM266.4 cells
# Type: cell-based
Listed here: items and their measured IC50.
Answer in nM, number only, no unit symbol.

input_smiles	reported_measurement
O=C(Nc1ccc(Oc2ccnc3[nH]c(=O)c(=O)[nH]c23)cc1F)Nc1cc(C(F)(F)F)ccc1F	600
Cc1ccc(-n2nc(C(C)(C)C)cc2NC(=O)Nc2ccc(Oc3ccnc4c3NCC(=O)N4)cc2F)cc1	11
Cc1nc2c(Oc3ccc(NC(=O)Nc4cc(C(C)(C)C)nn4-c4ccccc4)c4ccccc34)ccnc2[nH]c1=O	8
CSc1cc(Oc2ccnc3[nH]c(=O)c(=O)[nH]c23)ccc1NC(=O)Nc1cc(C(F)(F)F)ccc1F	550
O=C(Nc1cc(C(F)(F)F)ccc1F)Nc1ccc(Oc2ccnc3nc(C(F)(F)F)c(=O)[nH]c23)c2ccccc12	8500
Cc1ccc(-n2nc(C(C)(C)C)cc2NC(=O)Nc2ccc(Oc3ccnc4nc(N)c(=O)[nH]c34)cc2F)cc1	70

Input: Item Nc1nc2nccc(Oc3ccc(NC(=O)Nc4cc(C(F)(F)F)ccc4F)c4ccccc34)c2[nH]c1=O has what recorded IC50?
Output: 229

Input: Next record, please: CSc1cc(Oc2ccnc3[nH]c(=O)cnc23)ccc1NC(=O)Nc1ccc(Cl)c(C(F)(F)F)c1
Output: 187

Input: Next record, please: CNc1cnc2c(Oc3ccc(NC(=O)Nc4cc(C(F)(F)F)ccc4F)c(F)c3)ccnc2n1
Output: 45000
